# credit: the supplement of paper PMC10567573

B1: ZBTB22 (parent)
chain: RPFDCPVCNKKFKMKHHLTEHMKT

- Variants of: B1
- test: protein stability index of a GFP-peptide fusion (GPS, HEK-293T) (PSI 1-6); higher = more stable;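 note: lentivirally expressed fusions sorted by FACS into six bins by GFP to DsRed ratio, PSI derived from sequencing read proportions per bin multiplied by bin number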
- experimental_parameters: c terminus: a fixed tail appended
Classification field: Criterion met = protein stability index at or over 3; Criterion not met = protein stability index under 3.

Request: Is protein stability index at least 3? Consider K13T
Result: Criterion met

Request: Is protein stability index at least 3? Consider N9M
Result: Criterion not met

Request: Is protein stability index at least 3? Consider R1Y
Result: Criterion not met

Request: Is protein stability index at least 3? Consider R1N
Result: Criterion not met

Request: Is protein stability index at least 3? Consider K23W
Result: Criterion not met

Request: Is protein stability index at least 3? Consider K15S
Result: Criterion not met

Request: Is protein stability index at least 3? Consider H16D
Result: Criterion not met

Request: Is protein stability index at least 3? Consider F3Y
Result: Criterion met

Request: Is protein stability index at least 3? Consider K23E
Result: Criterion not met

Request: Is protein stability index at least 3? Consider T19N
Result: Criterion not met

Request: Is protein stability index at least 3? Consider F12H
Result: Criterion not met
